tested_on: T1, human PVRIG on FlpinCHO-PVRIG cells (human, UniProt Q6DKI7 41-326)
T1 construct: whole, on cells
T1 sequence (looked up): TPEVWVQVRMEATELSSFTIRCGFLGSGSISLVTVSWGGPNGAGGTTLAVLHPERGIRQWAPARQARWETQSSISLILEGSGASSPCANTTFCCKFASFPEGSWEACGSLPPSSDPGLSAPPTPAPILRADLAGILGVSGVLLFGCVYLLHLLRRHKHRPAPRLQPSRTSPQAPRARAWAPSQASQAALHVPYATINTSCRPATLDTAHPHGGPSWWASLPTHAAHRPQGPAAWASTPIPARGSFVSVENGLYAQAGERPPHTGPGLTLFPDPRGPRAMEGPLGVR
procedure_summary: FACS, FlpinCHO-PVRIG cells; AUC of MFI curve relative to COM701-hIgG1
recorded_metric: % AUC to COM701-hIgG1 (%)

[[record]]
binder = "PVRIG-A60 (Fc fusion, Alpaca VHH joined to human IgG1 Fc (VHH-hinge-CH2-CH3); not shown: human IgG1 hinge-CH2-CH3) QVQLVESGGGLVQSGGSLRLSCAASGRTRSMYVMGWFRQAPGKEREFVGRIKWSGDTTYTSYADFVKGRFTLYGNQARNTVYLQMNSLKPEDAAVYYCNLRRLDGVNYWGKGTLVTVSS"
reported_value = 63.3

[[record]]
binder = "PVRIG-A11 (Fc fusion, Alpaca VHH joined to human IgG1 Fc (VHH-hinge-CH2-CH3); not shown: human IgG1 hinge-CH2-CH3) QLQLVESGGGLVQPGGSLRLSCAASGFTDDYYAIGWFRQAPGKEREGVSCISGSGGSTNYEDSVKGRFAISRDNAKNMVYLQMNDLKPEDTAVYYCAADPFWSAPCTGHNDRYFDVWGQGTLVTVSS"
reported_value = 117

[[record]]
binder = "PVRIG-A104 (Fc fusion, Alpaca VHH joined to human IgG1 Fc (VHH-hinge-CH2-CH3); not shown: human IgG1 hinge-CH2-CH3) EVQVVESGGGLVQAGGSLRLSCAASGRTRSMYVMGWFRQAPGKEREFVGRIKWSGDTTYTSYADFVKGRFTLYGNQARNTVYLQMNSLKPEDTAVYYCYRRSWTNTKLYWGKGIQVTVSS"
reported_value = 18.1

[[record]]
binder = "PVRIG-A50 (Fc fusion, Alpaca VHH joined to human IgG1 Fc (VHH-hinge-CH2-CH3); not shown: human IgG1 hinge-CH2-CH3) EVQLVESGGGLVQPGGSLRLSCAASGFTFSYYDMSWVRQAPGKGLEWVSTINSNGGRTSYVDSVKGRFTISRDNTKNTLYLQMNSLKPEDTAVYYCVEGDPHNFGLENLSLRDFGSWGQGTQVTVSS"
reported_value = 89.5

[[record]]
binder = "PVRIG-A35 (Fc fusion, Alpaca VHH joined to human IgG1 Fc (VHH-hinge-CH2-CH3); not shown: human IgG1 hinge-CH2-CH3) EVQVVESGGGLVQSGGSLRLSCAASGRTRSMYVMGWFRQAPGKEREFVGRIKWSGDTTYTSYADFVKGRFTLYGNQARNTVYLQMNSLKPEDTAVYYCNGRSRFNVINAWGTGTLVTVAS"
reported_value = 122

[[record]]
binder = "PVRIG-A15 (Fc fusion, Alpaca VHH joined to human IgG1 Fc (VHH-hinge-CH2-CH3); not shown: human IgG1 hinge-CH2-CH3) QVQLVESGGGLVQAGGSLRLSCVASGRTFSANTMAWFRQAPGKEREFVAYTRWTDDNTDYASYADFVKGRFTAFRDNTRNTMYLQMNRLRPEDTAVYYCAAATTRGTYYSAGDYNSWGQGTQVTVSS"
reported_value = 36.3

[[record]]
binder = "PVRIG-A43 (Fc fusion, Alpaca VHH joined to human IgG1 Fc (VHH-hinge-CH2-CH3); not shown: human IgG1 hinge-CH2-CH3) QVQLVESGGGLVQSGGSLRLSCAASGRTRSMYVMGWFRQAPGKEREFVGRIKWSGDTTYTSYADFVKGRFTLYGNQARNTVYLQMNSLKVEDTAVYYCAGRVVPLPSRQRDRYDYWGQGTQVTVSS"
reported_value = 165


The reported numbers originate from patent US20240343803A1.
